# Target desc: UniProt Q9NYK1
# Sequence (Q9NYK1 whole entry): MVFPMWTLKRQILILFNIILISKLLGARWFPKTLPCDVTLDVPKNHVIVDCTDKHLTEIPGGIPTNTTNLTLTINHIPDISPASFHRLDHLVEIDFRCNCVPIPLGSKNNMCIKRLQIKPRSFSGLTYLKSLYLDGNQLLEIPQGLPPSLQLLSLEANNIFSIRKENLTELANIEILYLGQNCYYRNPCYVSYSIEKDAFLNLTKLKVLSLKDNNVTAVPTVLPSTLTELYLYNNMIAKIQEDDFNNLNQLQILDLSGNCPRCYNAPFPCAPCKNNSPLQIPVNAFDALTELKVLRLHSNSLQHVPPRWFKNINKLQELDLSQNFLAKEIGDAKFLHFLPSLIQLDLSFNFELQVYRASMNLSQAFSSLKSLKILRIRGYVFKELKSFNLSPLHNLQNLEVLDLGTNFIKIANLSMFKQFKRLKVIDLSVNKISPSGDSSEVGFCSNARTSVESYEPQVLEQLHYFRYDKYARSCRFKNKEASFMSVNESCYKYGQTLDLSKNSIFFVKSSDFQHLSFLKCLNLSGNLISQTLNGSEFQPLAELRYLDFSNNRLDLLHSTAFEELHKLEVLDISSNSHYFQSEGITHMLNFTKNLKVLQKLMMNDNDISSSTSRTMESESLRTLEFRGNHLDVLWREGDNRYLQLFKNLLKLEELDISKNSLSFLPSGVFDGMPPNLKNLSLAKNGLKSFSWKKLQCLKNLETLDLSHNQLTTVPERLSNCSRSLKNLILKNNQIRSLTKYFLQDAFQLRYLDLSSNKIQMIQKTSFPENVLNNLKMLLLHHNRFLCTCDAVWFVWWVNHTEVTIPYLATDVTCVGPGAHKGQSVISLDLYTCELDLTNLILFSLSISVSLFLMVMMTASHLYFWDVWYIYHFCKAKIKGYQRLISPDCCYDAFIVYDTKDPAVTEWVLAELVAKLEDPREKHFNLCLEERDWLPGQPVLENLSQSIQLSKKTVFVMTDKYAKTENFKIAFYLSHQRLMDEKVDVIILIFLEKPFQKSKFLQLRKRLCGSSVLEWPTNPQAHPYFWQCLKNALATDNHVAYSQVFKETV
# Procedure summary: Agonist activity at human TLR-7 expressed in HEK293 cells after 24 hrs by SEAP reporter gene assay
# Type: cell-based
# Details: read-out: EC50
pEC50: −log10 of the molar value.
Reported pEC50 values follow for various compounds

[
  {
    "Compound": "CC(C)Cn1cnc2c(N)nc3ccccc3c21 [IMIQUIMOD]",
    "pEC50": 4.97
  },
  {
    "Compound": "CCCCc1nc2c(N)nc3cc(C(=O)OC)ccc3c2n1CC(C)(C)O",
    "pEC50": 5.82
  }
]

----------
# Target desc: TLR7 and TLR8 (Mus musculus) (UniProt P58681+P58682)
# Sequence (P58681 whole entry, looked up): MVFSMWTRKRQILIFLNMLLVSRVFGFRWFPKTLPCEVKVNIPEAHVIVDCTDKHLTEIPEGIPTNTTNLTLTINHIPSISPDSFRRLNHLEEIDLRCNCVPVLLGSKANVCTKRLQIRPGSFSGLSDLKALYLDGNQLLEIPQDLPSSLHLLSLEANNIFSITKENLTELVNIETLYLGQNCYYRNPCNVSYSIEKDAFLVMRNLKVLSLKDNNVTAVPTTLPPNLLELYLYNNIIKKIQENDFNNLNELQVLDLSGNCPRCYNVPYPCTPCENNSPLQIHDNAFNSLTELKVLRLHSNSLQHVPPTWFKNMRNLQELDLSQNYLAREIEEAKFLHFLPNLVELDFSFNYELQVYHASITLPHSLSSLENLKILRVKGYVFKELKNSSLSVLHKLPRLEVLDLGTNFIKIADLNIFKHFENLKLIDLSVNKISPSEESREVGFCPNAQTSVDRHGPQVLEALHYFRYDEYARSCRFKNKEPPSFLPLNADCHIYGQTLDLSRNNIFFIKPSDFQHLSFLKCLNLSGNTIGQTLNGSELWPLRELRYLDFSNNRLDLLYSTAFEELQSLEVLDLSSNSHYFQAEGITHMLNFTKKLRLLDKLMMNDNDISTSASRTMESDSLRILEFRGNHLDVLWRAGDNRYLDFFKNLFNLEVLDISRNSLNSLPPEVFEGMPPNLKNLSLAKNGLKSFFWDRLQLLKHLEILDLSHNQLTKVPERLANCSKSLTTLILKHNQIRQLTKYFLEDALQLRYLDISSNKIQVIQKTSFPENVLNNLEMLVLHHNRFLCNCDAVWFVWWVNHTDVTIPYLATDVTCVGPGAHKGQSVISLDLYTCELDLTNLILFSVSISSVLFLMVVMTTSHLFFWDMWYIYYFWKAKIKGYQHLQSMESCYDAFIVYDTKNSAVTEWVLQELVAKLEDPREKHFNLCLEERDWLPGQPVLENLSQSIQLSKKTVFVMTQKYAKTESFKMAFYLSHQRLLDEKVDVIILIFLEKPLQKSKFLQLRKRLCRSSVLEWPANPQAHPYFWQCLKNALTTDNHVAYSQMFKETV
# Sequence (P58682 whole entry, looked up): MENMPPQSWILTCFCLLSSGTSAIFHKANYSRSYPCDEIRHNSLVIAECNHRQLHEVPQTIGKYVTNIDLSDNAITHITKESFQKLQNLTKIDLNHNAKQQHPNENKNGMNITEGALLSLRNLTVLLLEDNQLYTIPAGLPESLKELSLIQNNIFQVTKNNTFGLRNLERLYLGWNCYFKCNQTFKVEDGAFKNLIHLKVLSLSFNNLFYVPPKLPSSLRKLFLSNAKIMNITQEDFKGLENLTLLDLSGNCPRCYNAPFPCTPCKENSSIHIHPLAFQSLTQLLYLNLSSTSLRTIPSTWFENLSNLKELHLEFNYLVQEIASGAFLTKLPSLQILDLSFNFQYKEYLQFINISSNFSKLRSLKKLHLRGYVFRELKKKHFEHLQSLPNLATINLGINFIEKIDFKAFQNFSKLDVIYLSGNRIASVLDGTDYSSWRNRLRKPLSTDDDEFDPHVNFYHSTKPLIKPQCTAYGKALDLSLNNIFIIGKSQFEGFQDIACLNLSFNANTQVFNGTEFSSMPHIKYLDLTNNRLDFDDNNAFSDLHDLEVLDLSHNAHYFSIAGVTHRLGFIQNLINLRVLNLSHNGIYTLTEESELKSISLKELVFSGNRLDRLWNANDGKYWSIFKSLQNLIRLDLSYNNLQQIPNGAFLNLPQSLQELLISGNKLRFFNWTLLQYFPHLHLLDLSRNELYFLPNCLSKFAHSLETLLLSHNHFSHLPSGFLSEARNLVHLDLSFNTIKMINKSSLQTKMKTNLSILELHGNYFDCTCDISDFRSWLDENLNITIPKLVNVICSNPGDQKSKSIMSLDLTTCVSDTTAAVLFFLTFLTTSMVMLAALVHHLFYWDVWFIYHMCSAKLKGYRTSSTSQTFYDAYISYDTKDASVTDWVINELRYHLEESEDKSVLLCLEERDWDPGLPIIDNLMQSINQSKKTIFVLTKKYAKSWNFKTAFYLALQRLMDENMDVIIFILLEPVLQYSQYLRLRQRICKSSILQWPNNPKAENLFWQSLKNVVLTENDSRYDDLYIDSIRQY
# Procedure summary: Agonist activity at TLR7/TLR8 in C57BL/6 mouse BMDC assessed as induction of TNF-alpha production at 30 uM after 3 days by flow cytometric analysis
# Assay type: protein assay
Measurement label: Activity

[
  {
    "Molecule": "CCCCc1nc2c(N)nc3cc(C(=O)OC)ccc3c2n1CC(C)O (racemic)",
    "Target desc": "TLR7 and TLR8 (Mus musculus) (UniProt P58681+P58682)",
    "Measurement label": "Activity",
    "Test result": "1200 pg/mL"
  },
  {
    "Molecule": "CCCCc1nc2c(N)nc3cc(C(=O)OC)ccc3c2n1CCO",
    "Target desc": "TLR7 and TLR8 (Mus musculus) (UniProt P58681+P58682)",
    "Measurement label": "Activity",
    "Test result": "1210 pg/mL"
  },
  {
    "Molecule": "CCCCc1nc2c(N)nc3cc(C(=O)OC)ccc3c2n1C[C@H](C)O",
    "Target desc": "TLR7 and TLR8 (Mus musculus) (UniProt P58681+P58682)",
    "Measurement label": "Activity",
    "Test result": "1190 pg/mL"
  },
  {
    "Molecule": "CCCCc1nc2c(N)nc3cc(C(=O)OC)ccc3c2n1CCOC",
    "Target desc": "TLR7 and TLR8 (Mus musculus) (UniProt P58681+P58682)",
    "Measurement label": "Activity",
    "Test result": "1370 pg/mL"
  }
]

----------
# Target desc: TLR7 and TLR8 (Mus musculus) (UniProt P58681+P58682)
# Procedure summary: Agonist activity at TLR7/TLR8 in C57BL/6 mouse BMDC assessed as induction of IL-12p40 production at 30 uM after 3 days by flow cytometric analysis
# Format: protein assay
Outcome label depends on Activity relative to 400 pg/mL: at/above gives Y, below gives N.

[
  {
    "Molecular string": "CCOCc1nc2c(N)nc3ccccc3c2n1CC(C)(C)O",
    "Answer label": "N"
  },
  {
    "Molecular string": "COC(=O)c1ccc2c(c1)nc(N)c1nc(Cc3ccccc3)n(CC(C)(C)O)c12",
    "Answer label": "Y"
  },
  {
    "Molecular string": "CCCCc1nc2c(N)nc3cc(C(=O)OC)ccc3c2n1CCO",
    "Answer label": "N"
  },
  {
    "Molecular string": "CCCc1nc2c(N)nc3cc(C(=O)OC)ccc3c2n1CC(C)(C)O",
    "Answer label": "N"
  }
]
